Data origin: patent US20210323913A1

- Measured on: sigma 1 receptor (Homo sapiens, UniProt Q99720)
- Sequence (Q99720 whole entry, species assumed): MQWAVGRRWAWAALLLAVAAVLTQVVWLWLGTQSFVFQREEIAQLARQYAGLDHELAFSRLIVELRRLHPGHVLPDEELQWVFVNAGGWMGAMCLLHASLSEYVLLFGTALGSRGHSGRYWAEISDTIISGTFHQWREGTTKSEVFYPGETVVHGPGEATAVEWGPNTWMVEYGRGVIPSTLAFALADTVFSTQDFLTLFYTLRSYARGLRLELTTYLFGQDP
- Test method notes: Sigma 1 receptor radioligand competition binding
- Measurement conditions: Table 2, piperazinyl-tetrahydronaphthalene analogs; read-out: Ki (nM) Sig1R
Metric name: Ki (nM)

a = CCOC(=O)CCN1CCN(c2cccc3c2CCCC3N(C)C(=O)OCc2ccccc2)CC1 (stereo not shown)
b = CCOC(=O)CCN1CCN(c2ccc3c(c2)CCCC3N(C)C(=O)OCc2ccccc2)CC1 (stereo not shown)
c = CCCN1CCN(c2cccc3c2CCCC3N(C)C(=O)OCc2ccccc2)CC1 (stereo not shown)
d = CCCN1CCN(c2ccc3c(c2)CCCC3N(C)C(=O)OCc2ccccc2)CC1 (stereo not shown)
Challenge: Consider the compounds listed above. Rank them by Ki in ascending numerical order. Answer format: list of labels, ordered as asked.
Response given: c, d, a, b
(c: 12 nM, d: 40 nM, a: 303 nM, b: 647 nM)

* * *

Entries with their measured Ki, system 5-HT2A (Homo sapiens, UniProt P28223):
Respond numerically; units are nM and should not be typed.

{"Molecule": "CCN(CC)C(=O)CCN1CCN(c2ccc3c(c2)C(N(C)C(=O)OCc2ccccc2)CCC3)CC1 (stereo not drawn)", "Val": 957}
{"Molecule": "CCCN(C(=O)OCc1ccccc1)C1CCCc2ccc(N3CCN(CCC(=O)OCC)CC3)cc21 (stereo not drawn)", "Val": 1730}
{"Molecule": "CN(C(=O)OCc1ccccc1)C1CCCc2ccc(N3CCN(CCCO)CC3)cc21 (stereo not drawn)", "Val": 632}
{"Molecule": "CN(C(=O)OCc1ccccc1)C1CCCc2ccc(N3CCN(C4CCCC4)CC3)cc21 (stereo not drawn)", "Val": 547}
{"Molecule": "CCCN1CCN(c2ccc3c(c2)C(N(C)C(=O)OCc2ccccc2)CCC3)CC1 (stereo not drawn)", "Val": 315}

Now examine the next entry.
Challenge: Request - read-out Ki | tested on 5-HT2A (Homo sapiens, UniProt P28223) | molecule CCCN1CCN(c2ccc3c(c2)C(N(CCC)C(=O)OCc2ccccc2)CCC3)CC1 (stereo not drawn)
Response given: 1280

* * *

Observed Ki, system 5-HT2B (Homo sapiens, UniProt P41595).
Number in nM, nothing else.

{"Molecule": "CCN(CC)C(=O)CCN1CCN(c2ccc3c(c2)C(N(C)C(=O)OCc2ccccc2)CCC3)CC1 (centres unmarked) [MDW-1-213]", "Ki / nM": 692}
{"Molecule": "CN(C(=O)OCc1ccccc1)C1CCCc2ccc(N3CCN(C4CCCC4)CC3)cc21 (centres unmarked) [MDW-1-140]", "Ki / nM": 263}
{"Molecule": "CN(C(=O)OCc1ccccc1)C1CCCc2ccc(N3CCN(CCCO)CC3)cc21 (centres unmarked) [MDW-1-177]", "Ki / nM": 99}
{"Molecule": "CCCN(C(=O)OCc1ccccc1)C1CCCc2ccc(N3CCN(CCC(=O)OCC)CC3)cc21 (centres unmarked) [MDW-1-191]", "Ki / nM": 771}

Now for the molecule whose Ki we want.
Challenge: Item CCCN1CCN(c2ccc3c(c2)C(N(CCC)C(=O)OCc2ccccc2)CCC3)CC1 (centres unmarked) [MDW-1-196] with 5-HT2B (Homo sapiens, UniProt P41595) - Ki?
Response given: 2140

* * *

- Measured on: sigma 2 receptor (Homo sapiens)
- Test method notes: Sigma 2 receptor radioligand competition binding
- Measurement conditions: Table 2; ratio of Sig1R Ki to Sig2R Ki
Metric name: Ki ratio Sig1R/Sig2R

{"Compound": "CCOC(=O)CCN1CCN(c2cccc3c2CCCC3N(C)C(=O)OCc2ccccc2)CC1 (stereo not shown)", "Metric name": "Ki ratio Sig1R/Sig2R", "Val": 9}

I = CCCN1CCN(c2ccc3c(c2)CCCC3N(C)C(=O)OCc2ccccc2)CC1 (stereo not shown)
II = CCOC(=O)CCN1CCN(c2ccc3c(c2)CCCC3N(C)C(=O)OCc2ccccc2)CC1 (stereo not shown)
III = CCCN1CCN(c2cccc3c2CCCC3N(C)C(=O)OCc2ccccc2)CC1 (stereo not shown)
Challenge: Sort ascending by Ki ratio Sig1R/Sig2R. Quick reminder: the answer is the labels in the order asked.
Response given: III, I, II

* * *

- Measured on: H4 (Homo sapiens)
Metric name: Ki (µM)
Please state the figure in µM; there is no need to write the unit.

Challenge: # Ki lookup, item CCCN1CCN(c2ccc3c(c2)C(N(C)C(=O)OCc2ccccc2)CCC3)CC1 (stereo not shown)
Response given: 5.88

* * *

Listing: Ki of selected compounds
- Measured on: UniProt P08173
- Sequence (P08173 whole entry): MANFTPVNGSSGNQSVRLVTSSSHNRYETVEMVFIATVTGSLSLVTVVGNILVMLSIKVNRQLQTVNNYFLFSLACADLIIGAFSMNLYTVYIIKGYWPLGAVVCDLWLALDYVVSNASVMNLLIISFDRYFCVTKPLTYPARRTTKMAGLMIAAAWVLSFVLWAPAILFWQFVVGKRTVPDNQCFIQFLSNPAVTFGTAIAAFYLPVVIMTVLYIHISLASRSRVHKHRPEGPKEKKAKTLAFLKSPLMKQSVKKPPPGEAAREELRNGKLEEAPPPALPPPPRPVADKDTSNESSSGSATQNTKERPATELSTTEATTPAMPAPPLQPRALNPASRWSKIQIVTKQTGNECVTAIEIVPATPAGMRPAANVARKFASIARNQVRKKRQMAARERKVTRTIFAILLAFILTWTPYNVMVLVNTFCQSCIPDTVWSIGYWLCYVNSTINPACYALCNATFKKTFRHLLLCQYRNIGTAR
A number alone suffices; assume µM.

{"Compound": "CN(C(=O)OCc1ccccc1)C1CCCc2ccc(N3CCN(C4CCCC4)CC3)cc21 (centres unmarked) [MDW-1-140]", "Val": 2.98}

Challenge: API: value(readout= Ki, system= UniProt P08173, query= CCN(CC)C(=O)CCN1CCN(c2ccc3c(c2)C(N(C)C(=O)OCc2ccccc2)CCC3)CC1 (centres unmarked) [MDW-1-213] )
Response given: 3.28

* * *

- Measured on: sigma 1 receptor (Homo sapiens)
- Test method notes: Sigma 1 receptor radioligand competition binding
- Measurement conditions: Table 1, 7-piperazinyl-tetrahydronaphthalene analogs; read-out: Ki (nM) Sig1R
Metric name: Ki (nM)

Worked examples follow.
{"Compound": "CCOC(=O)CCN1CCN(c2ccc3c(c2)C(NC(=O)OCc2ccccc2)CCC3)CC1 (stereo not drawn)", "Measured on": "sigma 1 receptor (Homo sapiens)", "Output unit": "nM", "Ki": 2260}
{"Compound": "CN1CCN(c2ccc3c(c2)C(N(C)C(=O)OCc2ccccc2)CCC3)CC1 (stereo not drawn)", "Measured on": "sigma 1 receptor (Homo sapiens)", "Output unit": "nM", "Ki": 2940}
{"Compound": "CCCN1CCN(c2ccc3c(c2)C(OC(=O)CCc2ccccc2)CCC3)CC1 (stereo not drawn)", "Measured on": "sigma 1 receptor (Homo sapiens)", "Output unit": "nM", "Ki": 33}
{"Compound": "CCCN(C(=O)OCc1ccccc1)C1CCCc2ccc(N3CCN(CCC(=O)OCC)CC3)cc21 (stereo not drawn)", "Measured on": "sigma 1 receptor (Homo sapiens)", "Output unit": "nM", "Ki": 2360}
{"Compound": "CN(C(=O)OCc1ccccc1)C1CCCc2ccc(N3CCN(C4CCC4)CC3)cc21 (stereo not drawn)", "Measured on": "sigma 1 receptor (Homo sapiens)", "Output unit": "nM", "Ki": 266}

a = CCCN1CCN(c2ccc3c(c2)C(N(C)C(=O)OCc2ccccc2)CCC3)CC1 (stereo not drawn)
b = CCOC(=O)CCN1CCN(c2ccc3c(c2)C(N(CC)C(=O)OCc2ccccc2)CCC3)CC1 (stereo not drawn)
Challenge: Which entry has a larger number for Ki, a or b ? Return value: the label identifying the chosen record.
Response given: b
(b: 3320 nM, a: 200 nM)

* * *

- Measured on: sigma 2 receptor (Homo sapiens, UniProt Q5BJF2)
- Sequence (Q5BJF2 whole entry, species assumed): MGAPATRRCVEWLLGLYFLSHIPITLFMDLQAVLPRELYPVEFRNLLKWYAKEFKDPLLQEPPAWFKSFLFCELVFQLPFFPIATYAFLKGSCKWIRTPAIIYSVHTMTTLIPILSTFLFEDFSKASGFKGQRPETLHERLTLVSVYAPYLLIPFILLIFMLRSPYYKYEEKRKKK
- Test method notes: Sigma 2 receptor radioligand competition binding
- Measurement conditions: Table 1, 7-piperazinyl-tetrahydronaphthalene analogs; read-out: Ki (nM) Sig2R
Metric name: Ki (nM)

// below: answered molecules
{"Molecule": "CCCN1CCN(c2ccc3c(c2)C(N(CCC)C(=O)OCc2ccccc2)CCC3)CC1 (stereo not shown) [MDW-1-196]", "Val": 9}
{"Molecule": "CCN(CC)C(=O)CCN1CCN(c2ccc3c(c2)C(N(C)C(=O)OCc2ccccc2)CCC3)CC1 (stereo not shown) [MDW-1-213]", "Val": 7}
{"Molecule": "CN(C(=O)OCc1ccccc1)C1CCCc2ccc(N3CCN(CCCO)CC3)cc21 (stereo not shown) [MDW-1-177]", "Val": 21}
{"Molecule": "CCCN(C(=O)OCc1ccccc1)C1CCCc2ccc(N3CCN(CCC(=O)OCC)CC3)cc21 (stereo not shown) [MDW-1-191]", "Val": 19}
{"Molecule": "CN(C(=O)OCc1ccccc1)C1CCCc2ccc(N3CCN(C4CCCC4)CC3)cc21 (stereo not shown) [MDW-1-140]", "Val": 2}

I = CN(C(=O)OCc1ccccc1)C1CCCc2ccc(N3CCN(C4CCCCC4)CC3)cc21 (stereo not shown) [MDW-1-205]
II = CN1CCN(c2ccc3c(c2)C(N(C)C(=O)OCc2ccccc2)CCC3)CC1 (stereo not shown) [MDW-1-93]
Challenge: Field: entry with larger Ki (options I / II ). Bench note: the answer is the label of the chosen record.
Response given: II
(II: 284 nM, I: 2 nM)
